- protocol description: melting temperature; melt of duplexes
- run conditions: sodium 0.0675 M; strand 1 µM
endpoint label: Tm (°C)
API: value field is a number in °C; no unit string.

Look over these answered cases.
{"substance": "CGACGTGCCTCATGTGCTG+CAGCACATGATGCACGTCG ((((((((.((((((((((+)))))))))).))))))))", "measurement units": "°C", "Tm": 56.7}
{"substance": "CGACGTGCGTAATGTGCTG+CAGCACATTCAGCACGTCG ((((((((..(((((((((+)))))))))..))))))))", "measurement units": "°C", "Tm": 54.7}

Which Tm is reported for this substance? CGACGTGCACTATGTGCTG+CAGCACATCGAGCACGTCG ((((((((.(.((((((((+)))))))).).))))))))
46.7

// lookup Tm for CGACGTGCTGTATGTGCTG+CAGCACATAAAGCACGTCG (((((((((.(((((((((+))))))))).)))))))))
55.5

---

- protocol description: melting temperature; UV melt of duplexes
- run conditions: sodium 0.07 M; strand 2 µM
Recorded Tm by entry
Write it as a number; the unit °C goes unstated.

Consider the reported Tm for these substances:
{"substance": "AGTCTGGTCTGGATCTGAGAACTTCAGGCT+AGCCTGAAGTTCTCAGATCCAGACCAGACT ((((((((((((((((((((((((((((((+))))))))))))))))))))))))))))))", "Tm [°C]": 66.3}
{"substance": "GCGAGCGACAGGTTACTTGGCTGAT+ATCAGCCAAGTAACCTGTCGCTCGC (((((((((((((((((((((((((+)))))))))))))))))))))))))", "Tm [°C]": 67}
{"substance": "GATATAGCAAAATTCTAAGTTAATA+TATTAACTTAGAATTTTGCTATATC (((((((((((((((((((((((((+)))))))))))))))))))))))))", "Tm [°C]": 49.1}
{"substance": "GCCAACTCCGTCGCCGTTCGTGCGC+GCGCACGAACGGCGACGGAGTTGGC (((((((((((((((((((((((((+)))))))))))))))))))))))))", "Tm [°C]": 73.5}
{"substance": "CTCAACTTGCGGTAAATAAATCGCTTAATC+GATTAAGCGATTTATTTACCGCAAGTTGAG ((((((((((((((((((((((((((((((+))))))))))))))))))))))))))))))", "Tm [°C]": 60.9}

Any idea what Tm was measured for AAAGTACATCAACATAGAGAATTGCATTTC+GAAATGCAATTCTCTATGTTGATGTACTTT ((((((((((((((((((((((((((((((+)))))))))))))))))))))))))))))) ?
58.3

Return reported Tm; argument: TGATTCTACCTATGTGATTT+AAATCACATAGGTAGAATCA ((((((((((((((((((((+))))))))))))))))))))
49.1

Requested field: Tm. Item: CGAGCTTATCCCTATCCCTC+GAGGGATAGGGATAAGCTCG ((((((((((((((((((((+))))))))))))))))))))
56

# get_value(readout='Tm', item= ACGGGTCCCCGCACCGCACCGCCAG+CTGGCGGTGCGGTGCGGGGACCCGT (((((((((((((((((((((((((+))))))))))))))))))))))))) )
76.8

Consider the substance shown here: AAGGCGAGTCAGGCTCAGTG+CACTGAGCCTGACTCGCCTT ((((((((((((((((((((+)))))))))))))))))))) What is its recorded Tm?
64.5

Which Tm reading was recorded for the substance GTTCTATACTCTTGAAGTTGATTAC+GTAATCAACTTCAAGAGTATAGAAC (((((((((((((((((((((((((+))))))))))))))))))))))))) ?
52.7

Consider the substance shown here: TTCAAGTTAAACATTCTATC+GATAGAATGTTTAACTTGAA ((((((((((((((((((((+)))))))))))))))))))) What is its recorded Tm?
45.7

Consider the substance CGGGACCAACTAAAGGAAAT+ATTTCCTTTAGTTGGTCCCG ((((((((((((((((((((+)))))))))))))))))))) and give its measured Tm.
53.7

Endpoint output: Tm of CGCGCCACGTGTGATCTACAGCCGTTCGGC+GCCGAACGGCTGTAGATCACACGTGGCGCG ((((((((((((((((((((((((((((((+)))))))))))))))))))))))))))))) . Value?
72.7

Item under review: TATTGAGAACAAGTGTCCGATTAGCAGAAA+TTTCTGCTAATCGGACACTTGTTCTCAATA ((((((((((((((((((((((((((((((+)))))))))))))))))))))))))))))) . Reported Tm?
61.3

# get_value(readout='Tm', item= GTTATTCCGCAGTCCGATGGCAGCAGGCTC+GAGCCTGCTGCCATCGGACTGCGGAATAAC ((((((((((((((((((((((((((((((+)))))))))))))))))))))))))))))) )
70.6

Form field: reported Tm of ACAGCGAATGGACCTACGTGGCCTT+AAGGCCACGTAGGTCCATTCGCTGT (((((((((((((((((((((((((+)))))))))))))))))))))))))
68.1

Which value of Tm has been reported for TCGGAGAAATCACTGAGCTGCCTGAGAAGA+TCTTCTCAGGCAGCTCAGTGATTTCTCCGA ((((((((((((((((((((((((((((((+)))))))))))))))))))))))))))))) in the records?
66.3

I would be grateful if you could share the reported Tm for GTCCACGCCCGGTGCGACGG+CCGTCGCACCGGGCGTGGAC ((((((((((((((((((((+)))))))))))))))))))) .
70.9

Fill blank: measured Tm of the substance AGCAAGTCGAGCAGGGCCTACGTTT+AAACGTAGGCCCTGCTCGACTTGCT (((((((((((((((((((((((((+))))))))))))))))))))))))) is ____.
68.3

Consider the substance shown here: ATTGATATCCTTTTCTATTCATCTTTCATT+AATGAAAGATGAATAGAAAAGGATATCAAT ((((((((((((((((((((((((((((((+)))))))))))))))))))))))))))))) What is its recorded Tm?
53.5

---

- protocol description: melting temperature; melt of duplexes
- run conditions: sodium 0.0675 M; strand 1 µM
endpoint label: Tm
Answer as a quantity: numeral, then unit.

Worked cases, Tm given:
{"substance": "CGACGTGCACGATGTGCTG+CAGCACATCTAGCACGTCG ((((((((..(((((((((+)))))))))..))))))))", "endpoint label": "Tm", "result value": "51.3 °C"}
{"substance": "CGACGTGCATAATGTGCTG+CAGCACATCGTGCACGTCG (((((((((..((((((((+))))))))..)))))))))", "endpoint label": "Tm", "result value": "47.6 °C"}
{"substance": "CGACGTGCATAATGTGCTG+CAGCACATGAGGCACGTCG ((((((((.(.((((((((+)))))))).).))))))))", "endpoint label": "Tm", "result value": "53.2 °C"}
{"substance": "CGACGTGCTTCATGTGCTG+CAGCACATGCTGCACGTCG ((((((((..(((((((((+)))))))))..))))))))", "endpoint label": "Tm", "result value": "53.1 °C"}
{"substance": "CGACGTGCGCAATGTGCTG+CAGCACATATTGCACGTCG ((((((((...((((((((+))))))))...))))))))", "endpoint label": "Tm", "result value": "49.2 °C"}

Field request: Tm | item: CGACGTGCATGATGTGCTG+CAGCACATGTAGCACGTCG ((((((((...((((((((+))))))))...))))))))
49.9 °C

Given CGACGTGCTAAATGTGCTG+CAGCACATCCAGCACGTCG (((((((((..((((((((+))))))))..))))))))) , state its recorded Tm.
50.8 °C

---

- protocol description: melting temperature; melt of duplexes
- run conditions: sodium 0.0675 M; strand 1 µM
Tm under 50 °C gets 1, anything at or over 50 °C gets -1.

// known answers, use as guide
{"substance": "CGACGTGCCACATGTGCTG+CAGCACATGGAGCACGTCG ((((((((..(((((((((+)))))))))..))))))))", "category label": -1}
{"substance": "CGACGTGCGAGATGTGCTG+CAGCACATTCTGCACGTCG ((((((((...((((((((+))))))))...))))))))", "category label": -1}
{"substance": "CGACGTGCAAGATGTGCTG+CAGCACATGGAGCACGTCG ((((((((...((((((((+))))))))...))))))))", "category label": -1}
{"substance": "CGACGTGCTCTATGTGCTG+CAGCACATCCGGCACGTCG ((((((((...((((((((+))))))))...))))))))", "category label": 1}

hey, is Tm for CGACGTGCATCATGTGCTG+CAGCACATAACGCACGTCG ((((((((.(.((((((((+)))))))).).)))))))) lower than 50 °C or not?
1
